- Tested on: CAKI-1 renal
- ASSAY_DETAILS: NCI tumour cell line growth inhibition, 48 h; in the data active = GI50 below about 0.43 µM; inactive = the rest
Possible outcomes: active, inactive

>>> category("CC(CN)[C@@H]1CC[C@]2(CO)CC[C@]3(C)[C@H](CC[C@@H]4[C@@]5(C)CCC(N)C(C)(C)[C@@H]5CC[C@]43C)[C@@H]12 (stereo not given in full)")
"inactive"
>>> category("N#Cc1nn(-c2cc(=O)[nH]c3ccc(Br)cc23)c(N)c1C#N")
"inactive"
>>> category("CC[CH2][Sn]([CH2]CC)([O]C(=O)Cc1ccc(F)cc1)[O][Sn]([CH2]CC)([CH2]CC)[O]C(=O)Cc1ccc(F)cc1")
"active"
>>> category("COc1cc(C)c(NC(=O)CN(C)C)cc1Nc1nc(Nc2cccc(F)c2C(N)=O)c2cc[nH]c2n1")
"inactive"
>>> category("Cc1ccc(NC(=O)c2cc3ccccc3cc2O)c(C)c1.Cc1ccc(NC(=O)c2cc3ccccc3cc2[O-])c(C)c1.[Ni+2]")
"inactive"
>>> category("CCN(CC)CC[n+]1cc2cc(OC)c(OC)cc2c2ccc3cc4c(cc3c21)OCO4")
"inactive"
>>> category("COc1cc(/C=C2\\C[C@H]3[C@@H]4CC=C5C[C@@H](OC(C)=O)CC[C@]5(C)[C@H]4CC[C@]3(C)[C@H]2OC(C)=O)ccc1OCCN1CCCCC1")
"inactive"
>>> category("Cc1nn(C)c2cc(N(C)c3ccnc(Nc4cccc(S(N)(=O)=O)c4)n3)ccc12")
"inactive"
>>> category("COc1cnc2c(c1)C(=O)c1c-2n(CCCNC(C)C)c(=O)c2cc([N+](=O)[O-])ccc12")
"active"
>>> category("Nc1c2ccccc2nc2ccccc12 (tested in a mixture with another compound)")
"inactive"
